Test: Inhibition of HIV1 His6-tagged integrase-recombinant flag-tagged LEDGF/p75 interaction at 100 uM after 1 hr by alphascreen assay
inhibition listing for selected compounds.
Please reply with the bare figure in % and do not write the unit itself.

Guide cases for inhibition, answers given:
{"chemical_smiles": "CCOC(=O)/C(O)=C/C(=O)c1cn(Cc2cc(C)cc(C)c2)c2cccc(O)c12", "quantitative_result": 52}
{"chemical_smiles": "Cc1ccc(C)c(Cn2cc(C(=O)C3=C(O)C(=O)OC3)c3c(O)cccc32)c1", "quantitative_result": 38}
{"chemical_smiles": "CCOC(=O)/C(O)=C/C(=O)c1cn(Cc2ccc(C)cc2C)c2cccc(O)c12", "quantitative_result": 58}
{"chemical_smiles": "CCOC(=O)/C(O)=C/C(=O)c1cn(Cc2c(C)cccc2C)c2cccc(O)c12", "quantitative_result": 47}
{"chemical_smiles": "Cc1ccccc1Cn1cc(C(=O)/C=C(\\O)C(=O)O)c2c(O)cccc21", "quantitative_result": 20}

Field: next compound
# inhibition (compound: `O=C(O)/C(O)=C/C(=O)c1c[nH]c2cccc(O)c12` ) is 71
